# protocol.details: Kinetic solubility at pH 6.9, ca
# Type: physicochemical
# experimental.context: buffer
quantity.measured: solubility kinetic (µg/mL)
One number for each entry, in µg/mL.

## Input Reported solubility kinetic for `CCOc1ccc(S(=O)(=O)N2CCN(C)CC2)cc1-c1nc2c([nH]1)c(=O)n(C)c(=O)n2CC(C)C` : what is it?
## Output 30

---

# target.under.test: Phosphodiesterase 6
# protocol.details: Inhibitory concentration against bovine retina phosphodiesterase 6 activity
# Assay type: tissue-based
I'd be grateful if you could share measured IC50 for these entries.
Numbers only, in µM.

# map each compound to its IC50
1. CC(C)Cn1c(=O)n(C)c(=O)c2[nH]c(-c3cc(S(=O)(=O)N4CCN(C)CC4)ccc3OC(C)C)nc21
2. CCCOc1ccc(S(=O)(=O)N2CCN(CCN(C)C)CC2)cc1-c1nc2c(=O)n(C)c(=O)n(CC(C)C)c2[nH]1
3. CCCOc1ccc(S(=O)(=O)N2CCN(CCO)CC2)cc1-c1nc2c(=O)n(C)c(=O)n(CC(C)C)c2[nH]1

## Output
1. 0.077
2. 0.037
3. 0.015

Need IC50 for each of these compounds.
1. CCCCOc1ccccc1-c1nc2c(=O)n(C)c(=O)n(CC(C)C)c2[nH]1
2. CCCOc1ccc(S(=O)(=O)N2CCN(CCOC)CC2)cc1-c1nc2c(=O)n(C)c(=O)n(CC(C)C)c2[nH]1
3. CCOc1ccc(S(=O)(=O)N2CCN(C)CC2)cc1-c1nc2c(=O)n(C)c(=O)n(CC(C)C)c2[nH]1
4. CCCOc1ccc(S(=O)(=O)N2CCC(CCO)CC2)cc1-c1nc2c(=O)n(C)c(=O)n(CC(C)C)c2[nH]1
5. CCCOc1ccc(S(N)(=O)=O)cc1-c1nc2c(=O)n(C)c(=O)n(CC(C)C)c2[nH]1
6. CCOc1ccc(S(=O)(=O)N2CCN(C)CC2)cc1-c1nc2c(=O)n(C)c(=O)n(Cc3ccc(OC)cc3)c2[nH]1
7. CCCOc1ccc(S(=O)(=O)N(CC)CCN(C)C)cc1-c1nc2c(=O)n(C)c(=O)n(CC(C)C)c2[nH]1

## Output
[0.436, 0.091, 0.1, 0.017, 0.016, 1.21, 0.242]

---

# protocol.details: Kinetic solubility at pH 5; ca
# Assay type: physicochemical
# experimental.context: buffer
quantity.measured: solubility kinetic (µg/mL)
Give bare numbers, in µg/mL.

## Input Give the measured solubility kinetic of `CCCOc1ccc(S(=O)(=O)N2CCC(CCO)CC2)cc1-c1nc2c([nH]1)c(=O)n(C)c(=O)n2CC(C)C` .
## Output 5

---

# target.under.test: Phosphodiesterase 3 (Homo sapiens, UniProt Q14432+Q13370)
# protocol.details: Inhibition of human platelet Phosphodiesterase 3
quantity.measured: IC50

- compound: "CCOc1ccc(S(=O)(=O)N2CCN(C)CC2)cc1-c1nc2c(=O)n(C)c(=O)n(CC(C)(C)C)c2[nH]1"
  readout.value: "5.57 µM"
- compound: "C=CCCn1c(=O)n(C)c(=O)c2nc(-c3cc(S(=O)(=O)N4CCN(C)CC4)ccc3OCC)[nH]c21"
  readout.value: "> 10 µM"
- compound: "CCOc1ccc(S(=O)(=O)N2CCN(C)CC2)cc1-c1nc2c(=O)n(C)c(=O)n(Cc3ccc(OC)cc3)c2[nH]1"
  readout.value: "> 10 µM"
- compound: "CCOc1ccc(S(=O)(=O)N2CCN(C)CC2)cc1-c1nc2c(=O)n(C)c(=O)n(CC(C)C)c2[nH]1"
  readout.value: "> 10 µM"
- compound: "CCOc1ccc(S(=O)(=O)N2CCN(C)CC2)cc1-c1nc2c(=O)n(C)c(=O)n(CC(C)CC)c2[nH]1 (configuration not stated)"
  readout.value: "6.03 µM"
- compound: "CCOc1ccc(S(=O)(=O)N2CCN(C)CC2)cc1-c1nc2c(=O)[nH]c(=O)n(CC(C)C)c2[nH]1"
  readout.value: "> 10 µM"

Next up:
## Input Given `CCOc1ccc(S(=O)(=O)N2CCN(C)CC2)cc1-c1nc2c(=O)n(C)c(=O)n(CC3CC3)c2[nH]1` , state its recorded IC50.
## Output > 10 µM
